Test system: L1210 leukemia ip in BDF1 mice, survival T/C
Assay: NCI In Vivo Anticancer Drug Screen. Data for tumor model L1210 Leukemia (intraperitoneal) in B6D2F1 (BDF1) mice
Conditions: endpoint: mean survival time; dose: 100.0 mg/kg/injection; schedule: Q01DX001 (ip); vehicle: saline with Tween-80; higher = longer survival
Toxic doses and inconclusive results are not listed.
Assay endpoint: T/C

{"columns": ["Smiles text", "Target of assay", "T/C"],
 "data": [
  ["Nc1ccc(CCC(=O)Nc2ccc(S(=O)(=O)F)cc2)c(Cl)c1", "L1210 leukemia ip in BDF1 mice, survival T/C", "101 % of control"],
  ["COc1ccc(C)cc1NC(=S)NC(=O)c1cccc([N+](=O)[O-])c1", "L1210 leukemia ip in BDF1 mice, survival T/C", "93 % of control"],
  ["c1ccc(-c2cn3ccccc3n2)cc1", "L1210 leukemia ip in BDF1 mice, survival T/C", "94 % of control"]
]}

Task: Please provide the recorded T/C for `CC(C)N(C)/N=N/N(C)C(C)C` , tested on L1210 leukemia ip in BDF1 mice, survival T/C.
Output: 101 % of control

Task: Now try `CCN(Cc1ccncc1)C(=O)C(O)(c1ccccc1)c1ccccc1` .
Output: 93 % of control

Task: Now try `Cc1ccc([I+]c2ccc(C)c(C)c2)cc1C` .
Output: 97 % of control

---

Parameter: T/C. Scope: all listed entries.
Tested on: L1210 leukemia ip in BDF1 mice, survival T/C
Experiment: NCI In Vivo Anticancer Drug Screen. Data for tumor model L1210 Leukemia (intraperitoneal) in B6D2F1 (BDF1) mice
Settings: endpoint: mean survival time; dose: 100.0 mg/kg/injection; schedule: Q01DX001 (ip); vehicle: carboxymethylcellulose (CMC); higher = longer survival
Toxic doses and inconclusive results are not listed.

{"columns": ["Compound", "Assay value"],
 "data": [
  ["CC(=O)Nc1cc2c(cc1[N+](=O)[O-])-c1ccc(F)cc1C2", "94 % of control"],
  ["CC(=O)OCCC/C(=C\\c1ccc2ccccc2c1)[N+](=O)[O-]", "98 % of control"],
  ["O=C(O)c1ccccc1SSc1ccccc1C(=O)O", "100 % of control"],
  ["ClCCc1ccc(-n2cnc3c(Cl)ncnc32)cc1", "106 % of control"],
  ["Nc1ccc(N)c2c1C(=O)c1cccc([N+](=O)[O-])c1C2=O", "97 % of control"]
]}

Task: If you can, please state the reported T/C value of `O=C(/C=C/c1cccc(Cl)c1)c1ccc(Cl)cc1` .
Output: 94 % of control

Task: Now try `CCOC(=O)CCCc1ccc(N=NN(C)CC(C)C)cc1` .
Output: 107 % of control

Task: Now try `C=CCOC(=O)Nc1ccc(S(=O)(=O)N(C)C)cc1` .
Output: 97 % of control

Task: Now try `CC(=O)c1ccc2c(c1)C(=O)c1ccccc1-2` .
Output: 92 % of control

Task: Now try `CC1(C)C/C(=C/c2ccc([N+](=O)[O-])cc2[N+](=O)[O-])C(=O)O1` .
Output: 94 % of control

Task: Now try O=C(N/N=C/c1cccc([N+](=O)[O-])c1)C(O)C(O)C(O)C(O)CO (stereo unspecified) .
Output: 97 % of control
